# Protocol Details: chemical genetic growth profiling, strain panel (AID 1159580);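 also: tested at 20 µM; growth read once vehicle control cultures reached saturation at 30 °C; 1 = growth at the plate median or of vehicle wells; lower values mean less growth of the strain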
# Assay Setup: S. cerevisiae deletion strains, growth OD, locus YOR069W, strain VPS5, stronger effect = lower value
Among all 5,500 compounds or so, about 2,000 (36%) were called active. Not shown: some 18% with an inconclusive outcome. The list shows a part of the results.

| Compound | normalized growth |
| --- | --- |
| O=C(O)CCCOc1ccc(Cl)cc1Cl | 1 |
| C[C@H](N)[C@H](O)c1ccccc1 | 1 |
| C[C@H](N)[C@H](O)c1cccc(O)c1 | 0.985 |
| NCC(CC(=O)O)c1ccc(Cl)cc1 (configuration not stated) | 1.01 |
| COC(=O)CCCOc1ccc(Cl)cc1Cl | 1 |
| CN(C)N=Nc1nc[nH]c1C(N)=O | 1 |
| CN(C)CCOC(=O)C(c1ccccc1)C1(O)CCCC1 (configuration not stated) | 1.01 |

====

# Protocol Details: chemical genetic growth profiling, strain panel (AID 1159580);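 also: tested at 20 µM; growth read once vehicle control cultures reached saturation at 30 °C; 1 = growth at the plate median or of vehicle wells; lower values mean less growth of the strain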
# Assay Setup: S. cerevisiae deletion strains, growth OD, locus YDR388W, stronger effect = lower value
In all, about 5,500 compounds went through this assay and about 2,000 (36%) were called active. Roughly 18% stayed inconclusive and do not appear here. This is one part of the list.
Parameter: normalized growth

| Molecule | Value Reported |
| --- | --- |
| COc1cc(C)c(C(=O)Oc2cc(C)c(C(=O)O)c(O)c2C)c(OC)c1C | 1.01 |
| CC(=O)O[C@H]1CC[C@]2(C)C3C(=O)[C@@H](OC(C)=O)[C@@]4(C)C(C[C@@H]5O[C@]6(CCC(C)CO6)[C@@H](C)[C@@H]54)C3CC[C@H]2C1 (stereo not given in full) | 0.99 |
| CC(=O)O[C@H]1C[C@@H](OC(C)=O)C(C)(C)C2CC(=O)[C@]3(C)C(CC[C@@]4(C)[C@H](c5ccoc5)OC(=O)[C@H]5O[C@]543)[C@]21C (stereo not given in full) | 1.01 |
| CN(C)CCC(c1ccc(Br)cc1)c1ccccn1 (stereo not given) | 0.99 |
| CC1CCC2(OC1)OC1CC3C4CCC5C[C@@H](O)CCC5(C)C4=CCC3(C)C1[C@@H]2C (stereo not given in full) | 0.966 |
| CCN(CC)CCOC(=O)C(c1ccccc1)c1ccccc1 | 1 |
| N[C@@H]1[C@@H](O)[C@H](O)[C@@H](CO)O[C@H]1O | 1 |
| CCCC(C(=O)OCCN(CC)CC)(c1ccccc1)c1ccccc1 | 0.982 |
| COC(=O)c1c(C)cc(OC(=O)c2c(C)c(Cl)c(O)c(C=O)c2O)c(C)c1O | 0.985 |
| c1ccc2c(c1)CN1CCCC1=N2 | 0.989 |

====

# Protocol Details: chemical genetic growth profiling, strain panel (AID 1159580);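 also: tested at 20 µM; growth read once vehicle control cultures reached saturation at 30 °C; 1 = growth at the plate median or of vehicle wells; lower values mean less growth of the strain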
# Assay Setup: S. cerevisiae deletion strains, growth OD, locus YJL134W, strain LCB3, stronger effect = lower value
Hit rate of the full screen: of about 5,500 compounds, about 2,000 (36%) were called active. Inconclusive results (about 18%) are left out. The list shows a part of the results.
Measured normalized growth, listed per entry.

| Compound | normalized growth |
| --- | --- |
| C=C1C(C2(C)C=CC(=O)C(C)(C)C2CC(=O)OC)CC[C@@]2(C)[C@H](c3ccoc3)OC(=O)C3OC132 (some centres undefined) | 0.983 |
| CC(CN(C)C)CN1c2ccccc2Sc2ccccc21 (centres undefined) | 0.992 |
| CC(CN1c2ccccc2Sc2ccccc21)N(C)C (centres undefined) | 0.984 |
| COc1cc([C@@H]2c3cc4c(cc3[C@H](OC(C)=O)[C@H]3COC(=O)[C@@H]23)OCO4)cc(OC)c1OC | 1.01 |
| CC1=C2[C@H]3OC(=O)[C@@H](C)[C@@H]3CC[C@@]2(C)C=CC1=O | 1.01 |
| CCCC(C(=O)OCCN(CC)CC)(c1ccccc1)c1ccccc1 | 1.01 |
| CN1CC(CNC(=O)OCc2ccccc2)CC2c3cccc4c3c(cn4C)CC21 (centres undefined) | 0.995 |
| CN1CCN(C2=Nc3ccccc3Oc3ccc(Cl)cc32)CC1 | 0.992 |
| CN[C@@H]1[C@H](OC2[C@H](O[C@H]3[C@H](O)[C@@H](O)[C@H](N=C(N)N)[C@@H](O)[C@@H]3N=C(N)N)O[C@@H](C)[C@]2(O)C=O)O[C@@H](CO)[C@H](O)[C@H]1O (some centres undefined) | 1 |
| C=C1[C@H]2CC[C@@]3(C)[C@H](c4ccoc4)OC(=O)C[C@]13O[C@H]1C[C@H](O)C(C)(C)[C@H](CC(=O)OC)[C@]12C | 1.01 |
| CC(CN1c2ccccc2Sc2cccnc21)N(C)C (centres undefined) | 1.05 |
| CC(CN(C)C)CN1c2ccccc2CCc2ccccc21 (centres undefined) | 1 |
| C=C1C2=CC(=O)O[C@@H](c3ccoc3)[C@]2(C)CCC1[C@@]1(C)C=CC(=O)C(C)(C)[C@@H]1CC(=O)OC (some centres undefined) | 0.997 |
| Cc1nc2ccccn2c(=O)c1CCN1CCC(C(=O)c2ccc(F)cc2)CC1 | 1.02 |
